system: Saccharomyces cerevisiae; assay: protein stability index of tFT-peptide fusion in wild type (PSI (0-1 scale)); higher = more stable (slower turnover); conditions: genetic background: wild type;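 also: PSI derived as read-weighted mean over the 8 sorting bins, only variants exceeding 10 total reads kept, mCherry placed adjacent to the peptide and sfGFP distal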

{"Chain Sequence": "LVVYLSCVACINV", "protein stability index": 0.02}
{"Chain Sequence": "VRGAVGGWRLVR", "protein stability index": 0.651}
{"Chain Sequence": "FSMRWCFRYWVN", "protein stability index": 0.0796}
{"Chain Sequence": "CTSDGYKFRTNN", "protein stability index": 0.517}
{"Chain Sequence": "RLQQPLPVQFLN", "protein stability index": 0.0653}
{"Chain Sequence": "KKHSKGQKQKIN", "protein stability index": 0.0645}
{"Chain Sequence": "CTSCGYKFFTNN", "protein stability index": 0.347}
{"Chain Sequence": "VRWRVGLWRGAS", "protein stability index": 0.209}
{"Chain Sequence": "GLYMCSVGCNFR", "protein stability index": 0.632}
{"Chain Sequence": "AITNPMCPLLLR", "protein stability index": 0.488}
{"Chain Sequence": "CTSCGGKFRTNN", "protein stability index": 0.61}
{"Chain Sequence": "LVVYLSCVACHN", "protein stability index": 0.0435}
{"Chain Sequence": "RSLRVLLPLYFRC", "protein stability index": 0.218}
{"Chain Sequence": "LKILRQKMNHMN", "protein stability index": 0.191}
{"Chain Sequence": "AITIPMCPLLLR", "protein stability index": 0.236}
{"Chain Sequence": "LKILRQKMNHLN", "protein stability index": 0.192}
{"Chain Sequence": "KPHKKGQKQKIN", "protein stability index": 0.0908}
{"Chain Sequence": "EITLPMCPLLLR", "protein stability index": 0.338}
{"Chain Sequence": "PDKRNHLIMLLN", "protein stability index": 0.193}
